Every entry's value here was drawn from patent US20240279318A1.

# reported koff; entries follow
- MEASURED ON: T1, AFP158/HLA-A*02:01 complex (human)
- T1 construct: flowed as analyte in SPR
- MEASUREMENT NOTES: SPR, crude scFv captured, pMHC analyte;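 also: pMHC analyte injected at three concentrations, association phase of one hundred seconds, then running buffer for dissociation, rates fitted from both curves, KD derived from the rates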

{"BINDER": "AS170036 VL1VH1-98Q108S (scFv, also called 39-AS170036 VL1VH1-98Q108S) scFv: QSALTQPRSVSGSPGQSVTISCAGTSSDVGSENYVSWYQQHPGKAPKLMIYQVNKRASGVPDRFSGSKSGNTASLTISGLQAEDEADYYCASYRSSDQNIVFGGGTKLTVLGGGGSGGGGSGGGGSEVQLVESGGGLVQPGGSLRLSCAASGFTFSSYAMSWVRQAPGKGLEWVSTINSGTGSPYYADSVKGRFTISRDNSKNTLYLQMNSLRAEDTAVYYCAKNFFDGSWFLSPPAMDYWGQGTLVTVSSHHHHHH", "UNIT DESCRIPTOR": "s⁻¹", "koff": 0.0057}
{"BINDER": "AS170036 VL1VH1-98F108S (scFv, also called 33-AS170036 VL1VH1-98F108S) scFv: QSALTQPRSVSGSPGQSVTISCAGTSSDVGSENYVSWYQQHPGKAPKLMIYQVNKRASGVPDRFSGSKSGNTASLTISGLQAEDEADYYCASYRSSDFNIVFGGGTKLTVLGGGGSGGGGSGGGGSEVQLVESGGGLVQPGGSLRLSCAASGFTFSSYAMSWVRQAPGKGLEWVSTINSGTGSPYYADSVKGRFTISRDNSKNTLYLQMNSLRAEDTAVYYCAKNFFDGSWFLSPPAMDYWGQGTLVTVSSHHHHHH", "UNIT DESCRIPTOR": "s⁻¹", "koff": 0.0086}
{"BINDER": "AS170036 VL1VH1-57H108S (scFv, also called 24-AS170036 VL1VH1-57H108S) scFv: QSALTQPRSVSGSPGQSVTISCAGTSSDVGSENYVSWYQQHPGKAPKLMIYQVNKRASGVPDRFSGSKSGNTASLTISGLQAEDEADYYCASYRSSDHNIVFGGGTKLTVLGGGGSGGGGSGGGGSEVQLVESGGGLVQPGGSLRLSCAASGFTFSSYAMSWVRQAPGKGLEWVSTINSGTGHPYYADSVKGRFTISRDNSKNTLYLQMNSLRAEDTAVYYCAKNFFDGSWFLSPPAMDYWGQGTLVTVSSHHHHHH", "UNIT DESCRIPTOR": "s⁻¹", "koff": 0.0022}
{"BINDER": "AS170036 VL1VH1-57H98F (scFv, also called 07-AS170036 VL1VH1-57H98F) scFv: QSALTQPRSVSGSPGQSVTISCAGTSSDVGSENYVSWYQQHPGKAPKLMIYQVNKRASGVPDRFSGSKSGNTASLTISGLQAEDEADYYCASYRSSDFNIVFGGGTKLTVLGGGGSGGGGSGGGGSEVQLVESGGGLVQPGGSLRLSCAASGFTFSSYAMSWVRQAPGKGLEWVSTINSGTGHPYYADSVKGRFTISRDNSKNTLYLQMNSLRAEDTAVYYCAKNFFDGSWFLGPPAMDYWGQGTLVTVSSHHHHHH", "UNIT DESCRIPTOR": "s⁻¹", "koff": 0.0018}
